Catalogue of IC50 readings, one per entry.
# Tested on: H1299 p53 Y220C
# runDescription: Cell Proliferation Assay (CellTiter-Glo, CTG), H1299 p53 Y220C (NClH1299-inducible p53 Y220C)
# Format: cell-based
# testContext: Homo sapiens, NCI-H1299, 120 h, CellTiter-Glo, H1299 p53 Y220C, 5 days

Worked examples, 3 molecules total:
| molecule | IC50 |
| --- | --- |
| CNC(=O)c1ccc(NCC#Cc2nc3c(N[C@H]4Cc5cncn5C4)cccn3c2SC(F)(F)F)c(OC)c1 [Example 184] | 1500 to 3000 nM |
| CNC(=O)c1ccc(OC)c(NCC#Cc2nn3c(N[C@@H]4CCN(C)C[C@@H]4F)ccnc3c2SC(F)(F)F)c1 [Example 216] | 1500 to 3000 nM |
| CNC(=O)c1ccc(NCC#Cc2nc3c(N[C@H]4CCn5cncc5C4)cccn3c2SC(F)(F)F)c(OC)c1 [Example 177] | < 750 nM |

Please turn your attention to the following entry.
// query Given CNC(=O)c1ccc(NCC#Cc2nc3c(N[C@@H]4CCN(C)C[C@@H]4F)cccn3c2SC(F)(F)F)c(OC)n1 [Example 93] , report its IC50 on H1299 p53 Y220C.
// result < 750 nM

---

# testedSystem: p53 Y220C (Homo sapiens, UniProt P04637, Y220C)
# runDescription: Luciferase Reporter Assay (Luc), p53 response element, NClH1299 cells with inducible p53 Y220C
# Assay type: cell-based
# testContext: AC50; luciferase reporter, NClH1299 inducible p53 Y220C, 6 hour; read-out: Luc P53 Y220C AC50
Catalogue of AC50 readings, one per entry.

Worked examples, 6 compounds total:
| compound | AC50 |
| --- | --- |
| C[C@H](O)CNC(=O)c1ccc(NCC#Cc2cc3c(N[C@@H]4CCN(C)C[C@@H]4F)cccn3c2SC(F)(F)F)cc1 [Example 431] | < 750 nM |
| CNC(=O)c1cnc(OC)c(NCC#Cc2cc3c(N[C@@H]4CN(C)C[C@@H]4F)nccn3c2SC(F)F)c1 [Example 328] | < 750 nM |
| CNC(=O)c1ccc(OC)c(NCC#Cc2nn3c(N[C@@H]4C[C@H]5CC[C@@H]([C@@H]4F)N5C)cccc3c2SC(F)(F)F)c1 [Example 284] | < 750 nM |
| CNC(=O)c1ccc(NCC#Cc2cc3c(N[C@@H]4CCN(C)C[C@@H]4F)cccn3c2SC(F)(F)F)c(O[C@H]2C[C@H](O)C2)c1 [Example 398] | < 750 nM |
| CNC(=O)c1ccc(OC)c(NCC#Cc2nn3c(N[C@@H]4CN(C)C[C@@H]4F)cccc3c2SC(F)(F)F)c1 [Example 252] | < 750 nM |
| CNC(=O)c1ccc(OC)c(NCC#Cc2nc3c(N[C@H]4C[C@@H]5CC[C@H]4N5C)cccn3c2SC(F)(F)F)c1 [Example 248] | 750 to 1500 nM |

Please turn your attention to the following entry.
// query Given CNC(=O)c1ccc(OC)c(NCC#Cc2nc3c(N[C@H]4[C@H]5CC[C@@H]4NC5)cccn3c2SC(F)(F)F)c1 [Example 244] , report its AC50 on p53 Y220C (Homo sapiens, UniProt P04637, Y220C).
// result > 3000 nM
